B1: BTBD1 (parent)
chain: TSAEIELPDVEPAAFLALLRFLYS

- Variants of: B1
- EXPERIMENT: protein stability index of a GFP-peptide fusion (GPS, HEK-293T) (PSI 1-6); higher = more stable;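 note: lentivirally expressed fusions sorted by FACS into six bins by GFP to DsRed ratio, PSI derived from sequencing read proportions per bin multiplied by bin number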
- MEASUREMENT_CONDITIONS: c terminus: a fixed tail appended
ASSAY_METRIC: protein stability index
Write the value as a bare number.

Name the recorded protein stability index of the variant listed here: TSAEIELPDVEPAAFYALLRFLYS [L16Y]
1.53

Name the recorded protein stability index of the variant listed here: TSREIELPDVEPAAFLALLRFLYS [A3R]
2.26

Name the recorded protein stability index of the variant listed here: TSAEIELPDVEPSAFLALLRFLYS [A13S]
2.01

Name the recorded protein stability index of the variant listed here: TSAEIELPDVEDAAFLALLRFLYS [P12D]
1.47

Name the recorded protein stability index of the variant listed here: TSAEIELPDVEPAAFLALLTFLYS [R20T]
4.67

Name the recorded protein stability index of the variant listed here: TSAEIETPDVEPAAFLALLRFLYS [L7T]
1.75

Name the recorded protein stability index of the variant listed here: TSNEIELPDVEPAAFLALLRFLYS [A3N]
1.96

Name the recorded protein stability index of the variant listed here: TSAEIELPPVEPAAFLALLRFLYS [D9P]
2.4

Name the recorded protein stability index of the variant listed here: TSAEIELPDVETAAFLALLRFLYS [P12T]
1.41

Name the recorded protein stability index of the variant listed here: TSAMIELPDVEPAAFLALLRFLYS [E4M]
1.55

Name the recorded protein stability index of the variant listed here: TSAEIELPDVEPAAFLALLRFNYS [L22N]
2.06

Name the recorded protein stability index of the variant listed here: TSAQIELPDVEPAAFLALLRFLYS [E4Q]
2.14

Name the recorded protein stability index of the variant listed here: TSAEIELPDVEPAAFLALLRFLYG [S24G]
2.86

Name the recorded protein stability index of the variant listed here: TSAEIELPDVEPAACLALLRFLYS [F15C]
2.3

Name the recorded protein stability index of the variant listed here: TIAEIELPDVEPAAFLALLRFLYS [S2I]
2.07

Name the recorded protein stability index of the variant listed here: TSAEIELPDVEPAAFLALLRFAYS [L22A]
1.71

Name the recorded protein stability index of the variant listed here: TSQEIELPDVEPAAFLALLRFLYS [A3Q]
2.01

Name the recorded protein stability index of the variant listed here: TSAEIELPDVEPAAFLALLRFLYL [S24L]
2.39

Name the recorded protein stability index of the variant listed here: DSAEIELPDVEPAAFLALLRFLYS [T1D]
2.4

Name the recorded protein stability index of the variant listed here: TSAEIELPDVEPAAVLALLRFLYS [F15V]
1.75

Name the recorded protein stability index of the variant listed here: TSAEIELPYVEPAAFLALLRFLYS [D9Y]
1.33

Name the recorded protein stability index of the variant listed here: TSAEIELPDFEPAAFLALLRFLYS [V10F]
1.82

Name the recorded protein stability index of the variant listed here: TSAEIELPDVEPAAHLALLRFLYS [F15H]
1.67

Name the recorded protein stability index of the variant listed here: TSAEIELPDVEPAAFVALLRFLYS [L16V]
1.81

Name the recorded protein stability index of the variant listed here: TSAEIELPDVESAAFLALLRFLYS [P12S]
2.46

Name the recorded protein stability index of the variant listed here: TSAEIELTDVEPAAFLALLRFLYS [P8T]
1.74

Name the recorded protein stability index of the variant listed here: TSAEIELPDVEPACFLALLRFLYS [A14C]
1.84

Name the recorded protein stability index of the variant listed here: TSAEIELPDVEPAAFLALIRFLYS [L19I]
2.37

Name the recorded protein stability index of the variant listed here: TSAEIELPDVEPAAFLALLRFLYM [S24M]
2.37

Name the recorded protein stability index of the variant listed here: TLAEIELPDVEPAAFLALLRFLYS [S2L]
1.99

Name the recorded protein stability index of the variant listed here: TSAEIELPDVEPEAFLALLRFLYS [A13E]
1.85

Name the recorded protein stability index of the variant listed here: TSAEIELPDVVPAAFLALLRFLYS [E11V]
1.52

Name the recorded protein stability index of the variant listed here: TSAEIELPDVEPAAFLAWLRFLYS [L18W]
2.2

Name the recorded protein stability index of the variant listed here: TSAETELPDVEPAAFLALLRFLYS [I5T]
2.18

Name the recorded protein stability index of the variant listed here: TSAEIELIDVEPAAFLALLRFLYS [P8I]
1.62

Name the recorded protein stability index of the variant listed here: TSAEIELPDVEPAPFLALLRFLYS [A14P]
2.05
